- Test system: Staphylococcus aureus
- experimental.details: Antibacterial activity against methicillin-resistant Staphylococcus aureus N315 assessed as inhibition of bacterial growth incubated for 24 hrs by broth microdilution method
- Format: functional
- test.context: N315, 24 h
outcome.measure: log10 of MIC (log10 of the value in µM)
In our notation, the value equals log10 of MIC in µM.

Sample records with log10 of MIC:
CC[N+](C)(CC)CCCOc1c(-c2ccc(OCC=C(C)C)cc2)oc2cc(OCC=C(C)C)cc(O)c2c1=O ... 0.36
CCCOc1ccc(-c2oc3cc(OCCC)cc(O)c3c(=O)c2OCCCN(CC)CC)cc1 ... 1.11
CC(C)=CCOc1ccc(-c2oc3cc(OCC=C(C)C)cc(O)c3c(=O)c2OCCCN(C)C)cc1 ... 1.09
CN[C@H](CC(C)C)C(=O)N[C@H]1C(=O)N[C@@H](CC(N)=O)C(=O)N[C@H]2C(=O)N[C@H]3C(=O)N[C@H](C(=O)N[C@H](C(=O)O)c4cc(O)cc(O)c4-c4cc3ccc4O)[C@H](O)c3ccc(c(Cl)c3)Oc3cc2cc(c3O[C@@H]2O[C@H](CO)[C@@H](O)[C@H](O)[C@H]2O[C@H]2C[C@](C)(N)[C@H](O)[C@H](C)O2)Oc2ccc(cc2Cl)[C@H]1O ... 0.03
CCN(CC)CCCCCOc1c(-c2ccc(OCC=C(C)C)cc2)oc2cc(OCC=C(C)C)cc(O)c2c1=O ... 1.35

Problem: Please look up its log10 of MIC: CCN(CC)CCCOc1c(-c2ccc(OCC=C(C)C)cc2)oc2cc(OCC=C(C)C)cc(O)c2c1=O
Solution: 0.76

----------
Recorded HC50 at 1 h values for a group of molecules are listed next.
- experimental.details: Induction of hemolysis in rabbit RBC incubated for 1 hr
- Format: cell-based, Oryctolagus cuniculus, Erythrocyte
- test.context: rabbit red blood cells (erythrocytes)
// units = µM; emit number, no label

Sample records with HC50 at 1 h:
CCN(CC)CCCCCOc1c(-c2ccc(OCC=C(C)C)cc2)oc2cc(OCC=C(C)C)cc(O)c2c1=O ... 99
CCN(CC)CCCCCCOc1c(-c2ccc(OCC=C(C)C)cc2)oc2cc(OCC=C(C)C)cc(O)c2c1=O ... 83.8
CC(C)=CCOc1ccc(-c2oc3cc(OCC=C(C)C)cc(O)c3c(=O)c2OCCCN2CCN(C)CC2)cc1 ... 83.3
COC(=O)[C@H](CCCNC(=N)N)NC(=O)COc1c(-c2ccc(OCC=C(C)C)cc2)oc2cc(OCC=C(C)C)cc(O)c2c1=O ... 107
CC(C)=CCOc1ccc(-c2oc3cc(OCC=C(C)C)cc(O)c3c(=O)c2OCCCN(C)C)cc1 ... 228
COC(=O)[C@H](CCCNC(=N)N)NC(=O)[C@H](CCCNC(=N)N)NC(=O)COc1c(-c2ccc(OCC=C(C)C)cc2)oc2cc(OCC=C(C)C)cc(O)c2c1=O ... 82.5

Attention now shifts to the item below.
Problem: Please look up its HC50 at 1 h: CC(C)=CCOc1ccc(-c2oc3cc(OCC=C(C)C)cc(O)c3c(=O)c2OCC(=O)N[C@@H](CCCNC(=N)N)C(=O)NCCCN(C)C)cc1
Solution: 131

----------
- experimental.details: Induction of hemolysis in rabbit RBC incubated for 1 hr
- Assay type: cell-based, Oryctolagus cuniculus, Erythrocyte
- test.context: rabbit red blood cells (erythrocytes)
Recorded HC50 at 1 h values for a group of molecules are listed next.

CC(C)=CCOc1ccc(-c2oc3cc(OCC=C(C)C)cc(OCC(=O)NCCCN(C)C)c3c(=O)c2OCC(=O)NCCCN(C)C)cc1 ... > 283 µM

Problem: Please look up its HC50 at 1 h: CCN(CC)CCCCCCCCCCOc1c(-c2ccc(OCC=C(C)C)cc2)oc2cc(OCC=C(C)C)cc(O)c2c1=O
Solution: > 316 µM

----------
- System: Staphylococcus aureus
- experimental.details: Antibacterial activity against methicillin-resistant Staphylococcus aureus N315 assessed as inhibition of bacterial growth incubated for 24 hrs by broth microdilution method
- Format: functional
- test.context: N315, 24 h
Recorded MIC values for a group of molecules are listed next.

Sample records with MIC:
CC(C)=CCOc1ccc(-c2oc3cc(OCC=C(C)C)cc(O)c3c(=O)c2O)cc1 ... > 118 µM
CCCN(CCC)CCCOc1c(-c2ccc(OCC=C(C)C)cc2)oc2cc(OCC=C(C)C)cc(O)c2c1=O ... > 88.7 µM

Problem: Please look up its MIC: CCCCCOc1ccc(-c2oc3cc(OCCCCC)cc(O)c3c(=O)c2O)cc1
Solution: > 117 µM

Problem: How about CCCCCCCCCOc1ccc(-c2oc3cc(OCCCCCCCCC)cc(O)c3c(=O)c2O)cc1 ?
Solution: > 92.8 µM

Problem: How about O=c1c(O)c(-c2ccc(O)cc2)oc2cc(O)cc(O)c12 ?
Solution: > 175 µM

Problem: How about CCCOc1ccc(-c2oc3cc(OCCC)cc(O)c3c(=O)c2O)cc1 ?
Solution: > 135 µM

Problem: How about CCCCCCCCCOc1ccc(-c2oc3cc(OCCCCCCCCC)cc(O)c3c(=O)c2OCCCN(CC)CC)cc1 ?
Solution: > 76.7 µM

Problem: How about CCN(CC)CCCNC(=O)COc1c(-c2ccc(OCC=C(C)C)cc2)oc2cc(OCC=C(C)C)cc(OCC(=O)NCCCN(CC)CC)c2c1=O ?
Solution: > 65.5 µM

----------
Recorded HC50 at 1 h values for a group of molecules are listed next.
- experimental.details: Induction of hemolysis in rabbit RBC incubated for 1 hr
- Format: cell-based, Oryctolagus cuniculus, Erythrocyte
- test.context: rabbit red blood cells (erythrocytes)

CCCCCOc1ccc(-c2oc3cc(OCCCCC)cc(O)c3c(=O)c2O)cc1 ... > 469 µM
CCCCCCCCCOc1ccc(-c2oc3cc(OCCCCCCCCC)cc(O)c3c(=O)c2O)cc1 ... > 371 µM
CCCN(CCC)CCCOc1c(-c2ccc(OCC=C(C)C)cc2)oc2cc(OCC=C(C)C)cc(O)c2c1=O ... > 355 µM
CCCOc1ccc(-c2oc3cc(OCCC)cc(O)c3c(=O)c2O)cc1 ... > 540 µM
CCCCCCCOc1ccc(-c2oc3cc(OCCCCCCC)cc(O)c3c(=O)c2O)cc1 ... > 414 µM

Problem: Please look up its HC50 at 1 h: COC(=O)[C@H](CCCNC(=N)N)NC(=O)COc1c(-c2ccc(OCC=C(C)C)cc2)oc2cc(OCC=C(C)C)cc(OCC(=O)N[C@@H](CCCNC(=N)N)C(=O)OC)c2c1=O
Solution: > 228 µM

----------
- experimental.details: Induction of hemolysis in rabbit RBC incubated for 1 hr
- Type: cell-based, Oryctolagus cuniculus, Erythrocyte
- test.context: rabbit red blood cells (erythrocytes)
Recorded HC50 at 1 h values for a group of compounds are listed next.

Problem: Please look up its HC50 at 1 h: COC(=O)[C@H](Cc1c[nH]cn1)NC(=O)COc1c(-c2ccc(OCC=C(C)C)cc2)oc2cc(OCC=C(C)C)cc(O)c2c1=O
Solution: > 317 µM

Problem: How about CC(C)=CCOc1ccc(-c2oc3cc(OCC=C(C)C)cc(O)c3c(=O)c2OCCCN2CCSCC2)cc1 ?
Solution: > 354 µM

Problem: How about CC(C)=CCOc1ccc(-c2oc3cc(OCC=C(C)C)cc(O)c3c(=O)c2OCCCN2CCCC2)cc1 ?
Solution: > 375 µM

Problem: How about CCCCCCCOc1ccc(-c2oc3cc(OCCCCCCC)cc(O)c3c(=O)c2OCCCN(CC)CC)cc1 ?
Solution: > 336 µM

Problem: How about CCCCCCCCNCCCOc1c(-c2ccc(OCC=C(C)C)cc2)oc2cc(OCC=C(C)C)cc(O)c2c1=O ?
Solution: > 338 µM

Problem: How about CC(C)=CCOc1ccc(-c2oc3cc(OCC=C(C)C)cc(O)c3c(=O)c2O)cc1 ?
Solution: > 473 µM
